Attribution: patent US9981954B2

Test: Permeability in CALU-3 cells
Type: in vitro ADME
Settings: human; apical-to-basal, CALU-3 monolayers, pH 7.4, 37° C., 10 μM compound
Protocol: Permeability in CALU-3 Cells: Permeability measurements across polarized, confluent CALU-3 cell monolayers grown on permeable filter supports are used to provide information on the potential of a compound to pass the lung epithelium. CALU-3 cells (1-2×10^5 cells/l cm^2 area) are seeded on filter inserts (Costar transwell polycarbonate filters, 0.4 μm pore size) and cultured (for 10-12 days DMEM) until tight monolayers are formed. […]
Reported metric: Papp A→B at 90 min, 10 μM (×10⁻⁶ cm/s)

| Structure | Measured value |
| --- | --- |
| CC[n+]1c(CNC(=O)c2nc(Cl)c(N)nc2N)n(C2CCN(C(=O)NCCOC)CC2)c2ccccc21.O=C[O-] | 0.07 |

A: CCn1c(CNC(=O)c2nc(Cl)c(N)nc2N)[n+](CC(=O)c2ccc(OC)c(OC)c2)c2ccc(OC)cc21.O=C([O-])C(F)(F)F
B: CCn1c(CNC(=O)c2nc(Cl)c(N)nc2N)[n+](CC(=O)NC2CCN(C(=O)OC(C)(C)C)CC2)c2ccc(OC)cc21.[Br-]
// max by Papp A→B at 90 min, 10 μM over [ A , B ] Indicate which entry you chose by stating its label.
A
(A: 0.3 ×10⁻⁶ cm/s, B: 0.09 ×10⁻⁶ cm/s)

* * *

Biological target: ENaC (Epithelial Sodium Channel), Mouse kidney M-1 cells (Mus musculus, UniProt Q61180+Q9WU38+Q9WU39)
Construct: Mouse kidney M-1 cells were cultivated in DMEM containing 5% FCS and 5 μM dexamethasone; endogenous in cells
Sequence (Q61180 whole entry): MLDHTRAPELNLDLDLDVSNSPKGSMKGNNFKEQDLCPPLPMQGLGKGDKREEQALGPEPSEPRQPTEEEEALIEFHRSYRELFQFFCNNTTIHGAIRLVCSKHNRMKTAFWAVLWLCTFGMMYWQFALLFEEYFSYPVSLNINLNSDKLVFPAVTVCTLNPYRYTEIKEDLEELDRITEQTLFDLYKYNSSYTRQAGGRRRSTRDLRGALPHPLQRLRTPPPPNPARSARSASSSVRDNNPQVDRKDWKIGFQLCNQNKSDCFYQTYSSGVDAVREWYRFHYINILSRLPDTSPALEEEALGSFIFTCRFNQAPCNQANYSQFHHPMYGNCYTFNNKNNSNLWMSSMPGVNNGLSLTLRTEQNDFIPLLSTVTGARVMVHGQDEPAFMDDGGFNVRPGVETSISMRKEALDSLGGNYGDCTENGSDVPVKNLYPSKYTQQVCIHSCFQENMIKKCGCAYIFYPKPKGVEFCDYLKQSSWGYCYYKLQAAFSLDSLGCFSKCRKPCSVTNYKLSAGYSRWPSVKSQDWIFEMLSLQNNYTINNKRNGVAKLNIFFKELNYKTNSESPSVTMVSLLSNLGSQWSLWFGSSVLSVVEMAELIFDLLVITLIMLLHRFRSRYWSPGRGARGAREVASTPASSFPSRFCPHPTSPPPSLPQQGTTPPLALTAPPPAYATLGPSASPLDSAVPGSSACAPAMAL
Sequence (Q9WU38 whole entry): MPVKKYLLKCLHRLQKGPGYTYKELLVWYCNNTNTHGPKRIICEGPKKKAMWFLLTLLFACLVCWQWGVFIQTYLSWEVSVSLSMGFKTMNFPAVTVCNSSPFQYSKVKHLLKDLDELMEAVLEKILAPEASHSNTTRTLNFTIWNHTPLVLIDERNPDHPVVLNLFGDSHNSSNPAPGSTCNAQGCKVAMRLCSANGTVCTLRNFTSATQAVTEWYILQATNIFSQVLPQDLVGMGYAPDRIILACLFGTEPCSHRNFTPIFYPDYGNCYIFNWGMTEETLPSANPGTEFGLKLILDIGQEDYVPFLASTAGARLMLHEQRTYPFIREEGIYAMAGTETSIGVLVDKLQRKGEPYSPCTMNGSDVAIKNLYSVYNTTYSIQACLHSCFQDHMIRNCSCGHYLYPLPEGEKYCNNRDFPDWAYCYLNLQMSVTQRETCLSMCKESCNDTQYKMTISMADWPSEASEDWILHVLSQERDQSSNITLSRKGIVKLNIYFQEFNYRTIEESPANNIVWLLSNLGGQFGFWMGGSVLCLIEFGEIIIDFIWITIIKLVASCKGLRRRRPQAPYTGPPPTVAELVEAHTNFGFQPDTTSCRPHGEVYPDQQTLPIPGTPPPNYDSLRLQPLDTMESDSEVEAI
Sequence (Q9WU39 whole entry): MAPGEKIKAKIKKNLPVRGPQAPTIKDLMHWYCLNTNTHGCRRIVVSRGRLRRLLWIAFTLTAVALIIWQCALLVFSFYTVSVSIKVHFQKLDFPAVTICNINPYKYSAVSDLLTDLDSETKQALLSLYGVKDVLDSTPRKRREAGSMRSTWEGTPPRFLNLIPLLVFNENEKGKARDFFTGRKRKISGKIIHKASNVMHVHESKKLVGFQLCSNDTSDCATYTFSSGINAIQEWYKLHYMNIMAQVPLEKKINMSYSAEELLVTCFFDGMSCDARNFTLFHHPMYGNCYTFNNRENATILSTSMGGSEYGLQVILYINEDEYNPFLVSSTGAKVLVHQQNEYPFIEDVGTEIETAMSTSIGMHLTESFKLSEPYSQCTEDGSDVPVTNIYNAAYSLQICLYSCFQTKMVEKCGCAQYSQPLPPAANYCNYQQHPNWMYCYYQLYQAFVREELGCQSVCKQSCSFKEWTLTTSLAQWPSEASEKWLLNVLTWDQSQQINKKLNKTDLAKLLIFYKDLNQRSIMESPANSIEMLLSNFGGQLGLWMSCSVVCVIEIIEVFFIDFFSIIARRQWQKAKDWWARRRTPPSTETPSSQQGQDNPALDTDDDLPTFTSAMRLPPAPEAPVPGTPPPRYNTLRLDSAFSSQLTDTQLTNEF
Assay: Ussing Chamber assay: inhibition of amiloride sensitive short circuit current in M-1 cells
Details: apical application, 37° C.
pIC50: −log10 of the molar value.
Reported metric: pIC50

| Molecule | Measured value |
| --- | --- |
| CCn1c(CNC(=O)c2nc(Cl)c(N)nc2N)[n+](CC(=O)NC2CCN(C(=O)OC(C)(C)C)CC2)c2ccc(OC)cc21.[Br-] [Example 3.12] | 7.92 |
| CCn1c(CNC(=O)c2nc(Cl)c(N)nc2N)[n+](CCNS(C)(=O)=O)c2ccc(OC)cc21 [Example 9.01] | 9.40 |
| CCn1c(CNC(=O)c2nc(Cl)c(N)nc2N)[n+](CC(=O)N(CCO)CCO)c2ccc(OC)cc21 [Example 3.15] | 7.70 |
| CC[n+]1c(CNC(=O)c2nc(Cl)c(N)nc2N)n(CC2(CO)COC2)c2cc(OC)ccc21 [Example 1.02] | 8.70 |
| CCn1c(CNC(=O)c2nc(Cl)c(N)nc2N)[n+](CC(=O)N2CCNCC2)c2ccc(OC)cc21.Cl.[Cl-] [Example 6.01] | 7.33 |

I: CCn1c(CNC(=O)c2nc(Cl)c(N)nc2N)[n+](CC(=O)NCCCN(C)C(=O)OC(C)(C)C)c2ccc(OC)cc21 [Example 3.17]
II: CCn1c(CNC(=O)c2nc(Cl)c(N)nc2N)[n+](CC(=O)N(C)CCCN(C)C)c2ccc(OC)cc21 [Example 3.07]
Field: lower pIC50 | Options: I / II Indicate which entry you chose by stating its label.
II

P: CCn1c(CNC(=O)c2nc(Cl)c(N)nc2N)[n+](CC(=O)NCCOC)c2ccc(OC)cc21 [Example 3.04]
Q: CCn1c(CNC(=O)c2nc(Cl)c(N)nc2N)[n+](CC(=O)N2CCCNCC2)c2ccc(OC)cc21 [Example 6.04]
// max by pIC50 over [ P , Q ] Indicate which entry you chose by stating its label.
P
(P: 8.52, Q: 7.20)
